- TARGET: DGKζ (Homo sapiens (Human), UniProt Q13574)
- Sequence (Q13574 whole entry): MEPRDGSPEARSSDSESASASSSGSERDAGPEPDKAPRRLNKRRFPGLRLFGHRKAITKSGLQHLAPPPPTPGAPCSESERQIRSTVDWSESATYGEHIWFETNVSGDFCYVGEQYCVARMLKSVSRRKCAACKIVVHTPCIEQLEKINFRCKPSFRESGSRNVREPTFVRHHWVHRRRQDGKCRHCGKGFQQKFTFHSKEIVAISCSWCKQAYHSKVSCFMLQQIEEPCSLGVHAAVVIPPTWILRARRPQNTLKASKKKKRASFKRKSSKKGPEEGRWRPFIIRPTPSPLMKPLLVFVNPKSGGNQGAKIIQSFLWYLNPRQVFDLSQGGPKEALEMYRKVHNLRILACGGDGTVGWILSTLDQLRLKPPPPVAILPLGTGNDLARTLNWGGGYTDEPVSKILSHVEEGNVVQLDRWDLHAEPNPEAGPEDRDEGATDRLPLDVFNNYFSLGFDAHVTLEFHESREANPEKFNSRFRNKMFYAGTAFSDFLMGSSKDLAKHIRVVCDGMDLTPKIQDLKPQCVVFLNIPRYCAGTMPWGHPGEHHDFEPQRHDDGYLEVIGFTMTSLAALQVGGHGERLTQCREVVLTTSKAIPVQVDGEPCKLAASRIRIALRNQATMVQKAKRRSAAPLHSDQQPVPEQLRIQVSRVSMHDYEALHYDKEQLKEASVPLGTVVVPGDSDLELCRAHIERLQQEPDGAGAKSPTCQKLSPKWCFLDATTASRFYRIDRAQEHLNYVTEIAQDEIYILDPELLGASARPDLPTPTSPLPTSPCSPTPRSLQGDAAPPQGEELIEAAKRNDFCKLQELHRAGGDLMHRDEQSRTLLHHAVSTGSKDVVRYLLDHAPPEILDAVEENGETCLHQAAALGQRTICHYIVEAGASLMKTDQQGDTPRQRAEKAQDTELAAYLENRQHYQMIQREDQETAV
- ASSAY_NAME: In vitro DGKζ inhibition assay (ADP-Glo)
- EXPERIMENTAL_SETUP: His-tagged human recombinant enzyme, 0.4 nM DGK, 30 μM ATP, 20 μM DLG, 90 minute incubation
REPORTED_PROPERTY: IC50

>>> value_observed("Cc1nc2c(N3C[C@@H](C)N([C@@H](c4ccc(Cl)c(Cl)c4)C4CC(F)(F)C4)C[C@@H]3C)nc3nncn3c2n1C[C@@H]1CCCO1")
"≤ 20 nM"
>>> value_observed("Cc1nc2c(N3C[C@@H](C)N([C@H](c4ccc(C(F)(F)F)cc4)C(C)C)C[C@@H]3C)nc3nncn3c2n1C[C@@H]1CCCO1")
"≤ 20 nM"
>>> value_observed("Cc1nc2c(N3C[C@@H](C)N([C@H](c4ccc(F)cc4)c4ccc(F)c(C(F)(F)F)n4)C[C@@H]3C)nc3nncn3c2n1C[C@@H]1CCCO1 (single isomer, unassigned)")
"≤ 20 nM"
